All values here come from PubChem BioAssay (NCI).

Tested on: OVCAR-4 ovarian
Test: NCI-60 one-dose screen, 48 h (100 = growth as untreated, 0 = no growth, -100 = all killed)
Settings: 10 µM
Compounds without any hit were thinned out: in the full panel of roughly 83,000, 20% have a hit.
Items are presented alongside their recorded growth.

Compound	Target desc	growth (%)
COc1ccc(-c2nc(-c3nc4cc(Cl)c(Cl)cc4[nH]3)c3ccccn23)cc1	OVCAR-4 ovarian	-34.2
Cc1cc(C)c2c(n1)sc1c(Nc3ccc(Cl)cc3)ncnc12	OVCAR-4 ovarian	84.4
Cc1nc2ccccc2c(N)c1-c1cc(C)c2c(C)nc3ccccc3c2n1	OVCAR-4 ovarian	-64.1
CSc1nn(-c2ccccc2)c2ncnc(Oc3ccccc3)c12	OVCAR-4 ovarian	86.9
O=C(NN1C(=O)CSC1c1ccc(Cl)cc1)c1cccnc1 (configuration not stated)	OVCAR-4 ovarian	118
O=C(CSSCC(=O)c1ccc(Cl)cc1)c1ccc(Cl)cc1	OVCAR-4 ovarian	85.8
COc1cc2c(cc1OCCCCCCN1CCN(CC(=O)Nc3ccc(Cl)cc3C(=O)c3ccccc3Cl)CC1)N=CC1CCCN1C2=O (configuration not stated)	OVCAR-4 ovarian	-88.9
C(CCCC1=NCCO1)CCCC1=NCCO1	OVCAR-4 ovarian	109
COc1ccc2c(c1)sc1nc(-c3ccccc3)c(-c3ccsc3)n12	OVCAR-4 ovarian	62.8
Nc1ncn([C@@H]2O[C@H](CO)[C@@H](O)[C@H]2O)c(=O)n1	OVCAR-4 ovarian	34.1
Cc1cc(N(CCCNc2ccnc3cc(Cl)ccc23)Cc2ccc3c(c2)OCO3)nc(N2CCCCC2)n1	OVCAR-4 ovarian	-9.93
CC(=O)c1cc(Cl)ccc1O	OVCAR-4 ovarian	120
CN(C)CCN1C(=O)c2cccc3c(-c4ccc5ncn(C6CCCCC6)c5c4)ccc(c23)C1=O	OVCAR-4 ovarian	30.8
C#Cc1ccc(-n2c(/C=C/c3ccc(Cl)c(F)c3)nc3ncccc3c2=O)cc1	OVCAR-4 ovarian	-88.5
CCC(=O)N1C/C(=C/c2ccc(OC)cc2)C(=O)/C(=C/c2ccc(OC)cc2)C1	OVCAR-4 ovarian	58.3
COc1cc(-c2nn3c(/C=C4/C(=O)Nc5ccccc54)c(-c4ccc(C)cc4)nc3s2)cc(OC)c1OC	OVCAR-4 ovarian	-17.3
Nc1c(C(=O)Nc2ccccc2Cl)sc2nc3c(cc12)C(=O)CCC3	OVCAR-4 ovarian	84.4
O=[N+]([O-])c1ccc(Oc2cc(Cl)c(Cl)cc2Cl)c(C(F)(F)F)c1	OVCAR-4 ovarian	93.8
Cc1ncc(-c2ccoc2)c(NC2CCCCCC2)n1	OVCAR-4 ovarian	105
CCN(CC)CCCC(C)Nc1nc(-c2ccc(OC)cc2)nc2cc(Cl)ccc12 (configuration not stated)	OVCAR-4 ovarian	68.7
O=C1OCC2=C1C(c1cccc(Cl)c1)c1cc3c(cc1N2CCO)CCC3 (configuration not stated)	OVCAR-4 ovarian	50.4
CC(=O)N1C/C(=C/c2ccc(Cl)cc2)C(=O)/C(=C/c2ccc(Cl)cc2)C1	OVCAR-4 ovarian	10.9
CCCC1(CC(=O)O)OCCc2c1[nH]c1ccccc21 (configuration not stated)	OVCAR-4 ovarian	74
COc1ccc2c(c1)O/C(=C\c1ccc([N+](=O)[O-])o1)C2=O	OVCAR-4 ovarian	-1.31
COc1ccc(/C=C/C(C)=N/OCC(=O)O)cc1	OVCAR-4 ovarian	106
COc1ccc(Oc2nc(NC3CCCC3)nc(Sc3ccc(OC)cc3)n2)cc1	OVCAR-4 ovarian	74.3
O=C(O)CCCCSc1ncnc2nc[nH]c12	OVCAR-4 ovarian	116
CCN(CC)CCOc1nc2ccc(OC)cc2c2c1-c1ccc(OC)cc1C2=O	OVCAR-4 ovarian	-6.86
Cc1ccc(C(=O)Nc2cccc(F)c2)cc1NC(=O)C1(c2ncnc3[nH]ccc23)CC1	OVCAR-4 ovarian	101
Cn1c([N+](=O)[O-])cnc1/C=C1\Oc2cc(Cl)ccc2C1=O	OVCAR-4 ovarian	55
COc1cc(Nc2ncnc(Nc3ccc4c(n3)NC(=O)C(C)(C)O4)n2)cc(OC)c1OC	OVCAR-4 ovarian	39.8
Nc1nc(Nc2ccccc2)n[nH]1	OVCAR-4 ovarian	103
O=C1NC(=O)c2ncccc21	OVCAR-4 ovarian	113
O=C(Nc1ccc(Cl)c([N+](=O)[O-])c1)Nc1nc2ccccc2s1	OVCAR-4 ovarian	67.1
CCOC(=O)N1C/C(=C/c2ccc(F)cc2)C(=O)/C(=C/c2ccc(F)cc2)C1	OVCAR-4 ovarian	9.8
O=C1OCC2=C1C(c1ccc(Cl)c(Cl)c1)c1cc3c(cc1N2CCO)OCCO3 (configuration not stated)	OVCAR-4 ovarian	55.7
COc1ccc(/C=C/C(=O)Nc2ccc(-c3nc4ccc(F)cc4s3)cc2)cc1	OVCAR-4 ovarian	83.2
